molecular target: deoxyguanosine kinase (Homo sapiens); experiment: Inhibition of human dGK assessed as […] phosphorylation
pIC50: −log10 of the molar value.
MEASURE NAME: pIC50

Determine from records and report pIC50 for CCCCCCCC(=O)O[C@H]1[C@H](O)[C@@H](CO)O[C@H]1n1cnc2c(=O)[nH]c(N)nc21 < 3.30

Determine from records and report pIC50 for CCCCCCCC(=O)Nc1nc2c(ncn2[C@@H]2O[C@H](CO)[C@@H](O)[C@@H]2OC(=O)CCCCCCC)c(=O)[nH]1 < 3.30
